Provenance of the data: patent US20260242478A1

biological target: T1, PSMA Fab; experiment: phage binding ELISA; biotinylated PSMA Fab on neutravidin plate, wells pre-incubated with PSMA antigen as competitor, clonal phage supernatant, anti-M13 HRP detection
T1 construct: also called Anti-PSMA Fab; 006 PSMA Fab
Where no end group is shown, it is not given here.
Labelling field: enter fulfilled if recorded Phage binding ELISA signal, Anti-PSMA Fab in presence of PSMA is less than 0.07. Enter not fulfilled if it equals or exceeds that cut-off.

The following binders have reported results that may help.
# binder, classification
measured = [
    ("TVVKCVPEWMCEWL (cysteine pairing not given here; also: fused to phage pIII, linker and order not given here, Peptide-180 library clone, tested as clonal phage supernatant; not shown: pIII filament protein of the bacteriophage, to which the peptide is fused) [Phage-3206]", "fulfilled"),
    ("VVKICQPDWMCWGF (cysteine pairing not given here; also: fused to phage pIII, linker and order not given here, Peptide-180 library clone, tested as clonal phage supernatant; not shown: pIII filament protein of the bacteriophage, to which the peptide is fused) [Phage-3205]", "fulfilled"),
    ("DTPKCIPQWMCVGF (cysteine pairing not given here; also: fused to phage pIII, linker and order not given here, Peptide-180 library clone, tested as clonal phage supernatant; not shown: pIII filament protein of the bacteriophage, to which the peptide is fused) [Phage-3210]", "fulfilled"),
    ("LERLCQPSWMCTGF (cysteine pairing not given here; also: fused to phage pIII, linker and order not given here, Peptide-180 library clone, tested as clonal phage supernatant; not shown: pIII filament protein of the bacteriophage, to which the peptide is fused) [Phage-3204]", "not fulfilled"),
    ("PFAYCVPQWMCEAF (cysteine pairing not given here; also: fused to phage pIII, linker and order not given here, Peptide-180 library clone, tested as clonal phage supernatant; not shown: pIII filament protein of the bacteriophage, to which the peptide is fused) [Phage-3208]", "fulfilled"),
]

For the next question, use this binder.
Is it true that Phage binding ELISA signal, Anti-PSMA Fab in presence of PSMA reported for PEAMCRPTWMCAGF (cysteine pairing not given here; also: fused to phage pIII, linker and order not given here, Peptide-180 library clone, tested as clonal phage supernatant; not shown: pIII filament protein of the bacteriophage, to which the peptide is fused) [Phage-3211] is less than 0.07?
fulfilled
